# system_name: human glucagon receptor (human) (UniProt P47871)
# Sequence (P47871 26-477): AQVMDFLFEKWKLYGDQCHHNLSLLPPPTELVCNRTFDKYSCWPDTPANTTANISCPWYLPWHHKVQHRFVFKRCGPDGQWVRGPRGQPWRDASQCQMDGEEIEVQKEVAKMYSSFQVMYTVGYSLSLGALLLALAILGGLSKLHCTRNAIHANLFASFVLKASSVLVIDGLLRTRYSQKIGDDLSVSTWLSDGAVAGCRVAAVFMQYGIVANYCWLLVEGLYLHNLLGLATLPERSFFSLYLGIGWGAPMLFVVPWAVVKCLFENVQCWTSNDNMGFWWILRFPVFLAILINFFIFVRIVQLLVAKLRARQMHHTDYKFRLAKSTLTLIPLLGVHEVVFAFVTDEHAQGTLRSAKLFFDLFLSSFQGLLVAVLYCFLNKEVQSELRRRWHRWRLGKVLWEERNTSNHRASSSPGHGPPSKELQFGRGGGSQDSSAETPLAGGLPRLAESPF
# assay_name: cell-based or functional assay
A collection of binders and their measured log10 Relative cAMP EC50
endpoint: log10 Relative cAMP EC50 (log10 of the value in nM)

{"binder": "YXQGTFTSDFSXXLDKKAQXAFIEYLLAGGTSSGEPPPSGE (synthetic construct; SITE 2: note = 2-Aminoisobutyric Acid; SITE 12: note = L-ornithine; SITE 13: note = alpha-methyl-leucine; SITE 17: note = Lysine is chemically modified through conjugation of the epsilon-amino group of the Lysine side chain with (2-[2-(2-Amino-ethoxy)-ethoxy]-acetyl)-(gamma-Glu)) [Example 106]", "log10 Relative cAMP EC50": 0.80}
{"binder": "YXQGTXTSDXSIXLDXKAQXEFIEXLLEGGPSSGEPPPSGS (non-natural residues; lipidated Lys; C-terminal amide; synthetic construct; SITE 2: note = 2-Aminoisobutyric Acid; SITE 6: note = alpha-methyl-2-fluoro-L-phenylalanine; SITE 10: note = 3-(4-Pyridyl)-L-alanine; SITE 13: note = alpha-methyl-leucine; SITE 16: note = L-ornithine; SITE 17: note = Lysine is chemically modified through conjugation of the epsil) [Example 645]", "log10 Relative cAMP EC50": 0.51}
{"binder": "YXQGTXTSDXXIXLDXKAAXEFIEXLIEGGPSSGAPPPSGSEE (synthetic construct; SITE 2: note = 2-Aminoisobutyric Acid; SITE 6: note = alpha-methyl-2-fluoro-L-phenylalanine; SITE 10: note = 3-(4-Pyridyl)-L-alanine; SITE 11: note = alpha-methyl-L-serine; SITE 13: note = alpha-methyl-leucine; SITE 16: note = L-ornithine; SITE 17: note = Lysine is chemically mo) [Example 704]", "log10 Relative cAMP EC50": 0.27}
{"binder": "YXQGTFTSDFSKXLDKKAQXAFIEYLLEGGPSSGEPPPTEG (C-terminal amide; acylated lysine; synthetic construct; SITE 2: note = 2-Aminoisobutyric Acid; SITE 13: note = alpha-methyl-leucine; SITE 17: note = Lysine is chemically modified through conjugation of the epsilon-amino group of the Lysine side chain with (2-[2-(2-Amino-ethoxy)-ethoxy]-acetyl)-(gamma-Glu)-CO-(CH2) 18-CO2H; SITE 20: n) [Example 36]", "log10 Relative cAMP EC50": 0.64}
{"binder": "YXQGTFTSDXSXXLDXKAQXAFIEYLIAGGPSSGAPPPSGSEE (Lys acylated γGlu-C18 diacid; non-natural residues; C-amide; synthetic construct; SITE 2: note = 2-Aminoisobutyric Acid; SITE 10: note = 3-(4-Pyridyl)-L-alanine; SITE 12: note = L-ornithine; SITE 13: note = alpha-methyl-leucine; SITE 16: note = L-ornithine; SITE 17: note = Lysine is chemically modified through conjugation of the epsilon-amino group of the Lys) [Example 1063]", "log10 Relative cAMP EC50": 1.03}
{"binder": "YXQGTFTSDXSQXLDXKAQXAFIEXLIEGGPSSGEPPPSGSEE (Aib, 4Pal, αMeL, Orn, Me4Pal, αMeY; lipidated Lys; C-terminal amide; synthetic construct; SITE 2: note = 2-Aminoisobutyric Acid; SITE 10: note = 3-(4-Pyridyl)-L-alanine; SITE 13: note = alpha-methyl-leucine; SITE 16: note = L-ornithine; SITE 17: note = Lysine is chemically modified through conjugation of the epsilon-amino group of the Lysine side chain with (gamma-Gl)) [Example 1027]", "log10 Relative cAMP EC50": 0.70}
{"binder": "YXQGTXTSDXXILLDXKAQXXFIEYLIEGGPSSGEPPPEGEEE (Lys acylated (γ-Glu)2-C18 diacid; non-natural residues; C-terminal amide; synthetic construct; SITE 2: note = 2-Aminoisobutyric Acid; SITE 6: note = alpha-methyl-2-fluoro-L-phenylalanine; SITE 10: note = 3-(4-Pyridyl)-L-alanine; SITE 11: note = alpha-methyl-L-serine; SITE 16: note = L-ornithine; SITE 17: note = Lysine is chemically modified through conjugation of the epsi) [Example 606]", "log10 Relative cAMP EC50": 0.70}
{"binder": "YXQGTFTSDXSQXLDKKAQXAFIEXLIEXGPSSGAPPPSGSEE (Aib, 4Pal, αMeL, Me4Pal; K (γGlu)2-C18 diacid; amide; synthetic construct; SITE 2: note = 2-Aminoisobutyric Acid; SITE 10: note = 3-(4-Pyridyl)-L-alanine; SITE 13: note = alpha-methyl-leucine; SITE 17: note = Lysine is chemically modified through conjugation of the epsilon-amino group of the Lysine side chain with (gamma-Glu)2-CO-(CH2)16-CO2H; SITE 20:) [Example 1122]", "log10 Relative cAMP EC50": 1.01}
{"binder": "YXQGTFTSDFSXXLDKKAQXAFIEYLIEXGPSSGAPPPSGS (synthetic construct; SITE 2: note = 2-Aminoisobutyric Acid; SITE 12: note = (S)-2,3-diaminopropanoic acid; SITE 13: note = alpha-methyl-leucine; SITE 17: note = Lysine is chemically modified through conjugation of the epsilon-amino group of the Lysine side chain with (2-[2-(2-Amino-ethoxy)-ethoxy]-a)) [Example 800]", "log10 Relative cAMP EC50": 1.32}
{"binder": "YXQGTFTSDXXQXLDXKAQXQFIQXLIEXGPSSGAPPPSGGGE (not fully specified; Aib, 4Pal, Me4Pal, alpha-methyl residues, Orn, lipidated Lys, amide; synthetic construct; SITE 2: note = 2-Aminoisobutyric Acid; SITE 10: note = 3-(4-Pyridyl)-L-alanine; SITE 11: note = alpha-methyl-L-serine; SITE 13: note = alpha-methyl-leucine; SITE 16: note = L-ornithine; SITE 17: note = Lysine is chemically modified through conjugation of the epsilon-amino group) [Example 1186]", "log10 Relative cAMP EC50": 0.16}
{"binder": "YXQGTXTSDXXIXLDXKAQXEFIEXLIEGGPSSGAPPPESE (non-natural residues, acylated Lys, C-terminal amide; synthetic construct; SITE 2: note = 2-Aminoisobutyric Acid; SITE 6: note = alpha-methyl-2-fluoro-L-phenylalanine; SITE 10: note = 3-(4-Pyridyl)-L-alanine; SITE 11: note = alpha-methyl-L-serine; SITE 13: note = alpha-methyl-leucine; SITE 16: note = L-ornithine; SITE 17: note = Lysine is chemically mo) [Example 1146]", "log10 Relative cAMP EC50": 0.09}
{"binder": "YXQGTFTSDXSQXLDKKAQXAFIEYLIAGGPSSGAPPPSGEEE (acylated Lys, C-terminal amide, non-natural residues; synthetic construct; SITE 2: note = 2-Aminoisobutyric Acid; SITE 10: note = 3-(4-Pyridyl)-L-alanine; SITE 13: note = alpha-methyl-leucine; SITE 17: note = Lysine is chemically modified through conjugation of the epsilon-amino group of the Lysine side chain with (Glu)2-(gamma-Glu)-CO-(CH2)16-CO2H; SI) [Example 1090]", "log10 Relative cAMP EC50": 1.19}
